# MEASUREMENT TARGET: Protein translocase subunit SecA (Escherichia coli (strain K12)) (UniProt P10408)
# Sequence (P10408 whole entry): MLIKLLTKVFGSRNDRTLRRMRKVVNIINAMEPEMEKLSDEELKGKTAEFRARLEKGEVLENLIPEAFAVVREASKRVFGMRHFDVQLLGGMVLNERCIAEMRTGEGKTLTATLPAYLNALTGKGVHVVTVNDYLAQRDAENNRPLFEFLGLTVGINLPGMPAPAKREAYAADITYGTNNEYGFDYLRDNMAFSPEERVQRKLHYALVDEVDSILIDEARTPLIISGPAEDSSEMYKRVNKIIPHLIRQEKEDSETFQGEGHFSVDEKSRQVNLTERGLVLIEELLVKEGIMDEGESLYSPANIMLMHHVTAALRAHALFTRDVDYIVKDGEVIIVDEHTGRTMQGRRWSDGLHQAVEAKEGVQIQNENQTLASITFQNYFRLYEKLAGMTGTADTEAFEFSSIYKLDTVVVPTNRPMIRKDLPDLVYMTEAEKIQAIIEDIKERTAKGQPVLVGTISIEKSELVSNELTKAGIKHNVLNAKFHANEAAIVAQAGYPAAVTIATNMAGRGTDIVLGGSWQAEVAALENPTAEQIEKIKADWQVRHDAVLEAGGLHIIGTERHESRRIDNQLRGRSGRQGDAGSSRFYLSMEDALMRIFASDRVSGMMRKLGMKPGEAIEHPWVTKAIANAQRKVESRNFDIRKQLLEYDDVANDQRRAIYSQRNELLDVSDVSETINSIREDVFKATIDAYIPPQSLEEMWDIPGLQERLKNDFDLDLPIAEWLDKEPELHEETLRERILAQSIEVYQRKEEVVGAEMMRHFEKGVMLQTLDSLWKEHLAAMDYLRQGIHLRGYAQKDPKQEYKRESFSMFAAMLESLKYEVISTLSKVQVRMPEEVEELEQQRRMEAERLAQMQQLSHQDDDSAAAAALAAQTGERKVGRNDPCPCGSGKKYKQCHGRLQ
# ASSAY NAME: Assay to Identify E. coli SecA ATPase Inhibitors
# Format: functional
# Set-up: scale not given: direction of the effect not stated beside the values
# MEASUREMENT CONDITIONS: 30 µM
Entries with a potency or affinity are not part of this list.
Reported values of Percent Effect for individual entries
Report only the number, with the unit % understood.

These solved cases illustrate the format of a correct answer.
compound=CCOCC(=O)N1C[C@@H](O)[C@H](N(C)Cc2ccc(OC)cc2)C1 measurement_target="Protein translocase subunit SecA (Escherichia coli (strain K12)) (UniProt P10408)" units_symbol=% obs_value=-3.53
compound="CC(C)NC(=O)C1CN(C(=O)c2ccco2)CC12CCOCC2 (stereo unspecified)" measurement_target="Protein translocase subunit SecA (Escherichia coli (strain K12)) (UniProt P10408)" units_symbol=% obs_value=-1.7
compound="CC(C)c1nc(C2CCCN2Cc2ccccc2C#N)no1 (stereo unspecified)" measurement_target="Protein translocase subunit SecA (Escherichia coli (strain K12)) (UniProt P10408)" units_symbol=% obs_value=-1.53
compound=Cc1nc(CN2CCN(C(=O)COCc3ccccc3)CC2)no1 measurement_target="Protein translocase subunit SecA (Escherichia coli (strain K12)) (UniProt P10408)" units_symbol=% obs_value=-3.03
compound="CN(C)CC1CN(Cc2ccc3c(c2)OCO3)Cc2nccn2C1 (stereo unspecified)" measurement_target="Protein translocase subunit SecA (Escherichia coli (strain K12)) (UniProt P10408)" units_symbol=% obs_value=-10.1

# input for lookup
// sample CCC1CN(C(=O)c2ccc(Cl)cc2O)CCN1C(C)C (stereo unspecified) , its Percent Effect was -4.41
